Below: a set of entries, each annotated with reported pEC50.
Test system: HBV DNA in HepG2.2.15 cells
test: HBV in vitro dot-blot hybridization test
Type: cell-based, Hepatitis B virus
experimental.context: Hepatitis B virus, HepG2.2.15, dot-blot hybridization assay, read-out: Concentration for 50% inhibition of HBV (EC50)value
Text: • 1. Purpose of the test: • The content of HBV DNA in HepG2.2.15 cells was detected by dot-blot hybridization test to evaluate an inhibitory action of the compound on HBV with an EC50 value as an indicator. • 2. […]
pEC50: −log10 of the molar value.

# example entries with known answers
CCOC(=O)C1=C2CCCN2C(c2nccs2)=NC1(C)c1ccc(F)cc1 (racemic) [Example 75] | 5.30 to 6.00
CCOC(=O)C1=C2C[C@@H](CO)CN2C(c2nccs2)=NC1c1ccc(F)cc1Br (mixture of isomers) [Example 8] | 6.30 to 7.00
CCOC(=O)C1=C2C[C@H](C#N)CN2C(c2nccs2)=N[C@H]1c1ccc(F)cc1Cl [Example 24] | 6.00 to 6.30

Quick one: pEC50 for CCOC(=O)C1=C2CNS(=O)(=O)CN2C(c2nccs2)=N[C@H]1c1ccc(F)cc1Br [Example 135] ?
6.00 to 6.30

Which pEC50 reading was recorded for the compound COC(=O)C1=C2C[C@H](NS(C)(=O)=O)CN2C(c2nccs2)=N[C@H]1c1cccc(F)c1Cl [Example 165] ?
> 7.00

====

As shown below, each of these compounds has a reported EC50 value.
Tested on: HBV DNA in HepG2.2.15 cells
test: HBV in vitro dot-blot hybridization test
Assay type: cell-based, Hepatitis B virus
experimental.context: Hepatitis B virus, HepG2.2.15, dot-blot hybridization assay, read-out: Concentration for 50% inhibition of HBV (EC50)value

CCOC(=O)C1=C2CCCN2C(c2ncc(F)cc2F)=NC1c1ccc(F)cc1Cl (racemic) | 1000 to 5000 nM
CCOC(=O)C1=C2C[C@H](NS(C)(=O)=O)CN2C(c2nncs2)=N[C@H]1c1ccc(F)cc1Cl | 100 to 500 nM

Kindly state the measured EC50 obtained for CCOC(=O)C1=C2C[C@H](NS(=O)(=O)C(F)F)CN2C(c2nccs2)=N[C@H]1c1ccc(F)cc1Cl with HBV DNA in HepG2.2.15 cells.
< 100 nM

Please state recorded EC50 (tested on HBV DNA in HepG2.2.15 cells) of CCOC(=O)C1=C2C[C@H](NC(=O)OC(C)C)CN2C(c2nccs2)=N[C@H]1c1ccc(F)cc1Br
< 100 nM

Kindly state the measured EC50 obtained for CCOC(=O)C1=C2CCCN2C(c2ccsn2)=NC1c1ccc(F)cc1Cl (racemic) with HBV DNA in HepG2.2.15 cells.
1000 to 5000 nM

====

Tested on: HBV DNA in HepG2.2.15 cells
test: HBV in vitro dot-blot hybridization test
Assay type: cell-based, Hepatitis B virus
experimental.context: Hepatitis B virus, HepG2.2.15, dot-blot hybridization assay, read-out: Concentration for 50% inhibition of HBV (EC50)value
pEC50: −log10 of the molar value.
A collection of molecules and their measured pEC50

Here is how some molecules turned out for pEC50.
COC(=O)C1=C2C[C@H](NS(C)(=O)=O)CN2C(c2nccs2)=N[C@H]1c1ccc(F)cc1Cl | > 7.00
CCOC(=O)C1=C2CC(NC(=O)OC(C)C)CN2C(c2nccs2)=N[C@H]1c1ccc(F)cc1Br (mixture of isomers) [Example 45] | > 7.00
CCOC(=O)C1=C2CN(C)CCN2C(c2nccs2)=NC1c1ccc(F)cc1Br (racemic) | 5.30 to 6.00
CCOC(=O)C1=C2C[C@H](NS(=O)(=O)/C=C/F)CN2C(c2nccs2)=N[C@H]1c1ccc(F)cc1Cl | > 7.00
CCNC(=S)N1CCN2C(c3nccs3)=N[C@@H](c3ccc(F)cc3Br)C(C(=O)OCC)=C2C1 | 6.30 to 7.00

Would you mind telling me what pEC50 value was observed for CCOC(=O)C1=C2C[C@H](NC(=O)C3COC3)CN2C(c2nccs2)=N[C@H]1c1ccc(F)cc1Cl ?
5.30 to 6.00

Field request: pEC50 | item: CCOC(=O)C1=C2C[C@H](O)CN2C(c2nccs2)=N[C@H]1c1ccc(F)cc1Cl
6.30 to 7.00

What measured pEC50 goes with CCOC(=O)C1=C2CCCN2C(c2nccn2C)=NC1c1ccc(F)cc1Cl (racemic) ?
5.30 to 6.00

====

System: HBV DNA in HepG2.2.15 cells
test: HBV in vitro dot-blot hybridization test
Format: cell-based, Hepatitis B virus
experimental.context: Hepatitis B virus, HepG2.2.15, dot-blot hybridization assay, read-out: Concentration for 50% inhibition of HBV (EC50)value
pEC50: −log10 of the molar value.
Here, each record is paired with measured pEC50 data.

CCOC(=O)C1=C2CCCN2C(c2nccs2)=NC1c1ccc(F)cc1 (racemic) | 5.30 to 6.00
CCOC(=O)C1=C2C[C@@H](N(C)C)CN2C(c2nccs2)=N[C@H]1c1ccc(F)cc1Br | 5.30 to 6.00
CCOC(=O)C1=C2CC(NC(=O)NC)CN2C(c2nccs2)=N[C@H]1c1ccc(F)cc1Br (mixture of isomers) [Example 51] | 6.30 to 7.00
CCOC(=O)C1=C2C[C@@H](NS(=O)(=O)C(F)F)CN2C(c2nccs2)=N[C@H]1c1ccc(F)cc1Br | > 7.00
CCOC(=O)C1=C2[C@H](NS(C)(=O)=O)CCN2C(c2nccs2)=N[C@H]1c1ccc(F)cc1Br | 5.30 to 6.00
COC(=O)C1=C2C[C@H](NS(=O)(=O)CCO)CN2C(c2nccs2)=N[C@H]1c1ccc(F)cc1Cl | > 7.00

// query pEC50 value for entry CCOC(=O)C1=C2C[C@H](NS(=O)(=O)C(F)F)CN2C(c2nccs2)=N[C@H]1c1ccc(F)cc1Br
> 7.00

# input molecule: CCOC(=O)C1=C2CCN2C(c2nccs2)=NC1c1ccc(F)cc1Br (racemic) ; wanted: its pEC50
5.30 to 6.00

Request the reported pEC50 associated with CCOC(=O)C1=C2CN(C(C)=O)CCN2C(c2nccs2)=NC1c1ccc(F)cc1Br (racemic)
6.00 to 6.30

// pEC50 lookup, key: CCOC(=O)C1=C2C[C@@H](CS(C)(=O)=O)CN2C(c2nccs2)=N[C@H]1c1ccc(F)cc1Br
6.30 to 7.00

Report pEC50 for CCOC(=O)C1=C2CCCN2C(c2nccs2)=NC1c1ccc(F)cc1F (racemic) please.
6.00 to 6.30

Fill in: pEC50 of CCOC(=O)C1=C2C[C@@H](CN3CCC[C@H]3C(=O)OC)CN2C(c2nccs2)=N[C@H]1c1ccc(F)cc1Br is ___
5.30 to 6.00

Form field: reported pEC50 of CCOC(=O)C1=C2C[C@@H](N3CCOC3=O)CN2C(c2nccs2)=N[C@H]1c1ccc(F)cc1Br
6.30 to 7.00

Could you share which pEC50 value was measured for CCOC(=O)C1=C2C[C@@H](NS(C)(=O)=O)CN2C(c2nccs2)=N[C@H]1c1ccc(F)cc1Cl ?
> 7.00

====

System: HBV DNA in HepG2.2.15 cells
test: HBV in vitro dot-blot hybridization test
Assay type: cell-based, Hepatitis B virus
experimental.context: Hepatitis B virus, HepG2.2.15, dot-blot hybridization assay, read-out: Concentration for 50% inhibition of HBV (EC50)value
pEC50: −log10 of the molar value.
measured.property: pEC50

Param readout = pEC50; param system = HBV DNA in HepG2.2.15 cells; param query = CC(C)OC(=O)C1=C2C[C@H](NS(C)(=O)=O)CN2C(c2nccs2)=N[C@H]1c1ccc(F)cc1Cl ; response: value
6.30 to 7.00

Hello, I am looking for reported pEC50 with HBV DNA in HepG2.2.15 cells for CCOC(=O)C1=C2C[C@@H](CC(=O)O)CN2C(c2nccs2)=N[C@H]1c1ccc(F)cc1Br . Could you help?
6.30 to 7.00

# returns recorded pEC50 (system: HBV DNA in HepG2.2.15 cells) for CCOC(=O)C1=C2C[C@H](NS(=O)(=O)CC(=O)O)CN2C(c2nccs2)=N[C@H]1c1ccc(F)cc1Cl
6.30 to 7.00

Short answer please: pEC50, HBV DNA in HepG2.2.15 cells, entry CCOC(=O)C1=C2C[C@H](NS(=O)(=O)C3COC3)CN2C(c2nccs2)=N[C@H]1c1ccc(F)cc1Cl
> 7.00

What pEC50 appears in the records for this compound with HBV DNA in HepG2.2.15 cells? CCOC(=O)C1=C2CN(C)S(=O)(=O)CN2C(c2nccs2)=N[C@H]1c1ccc(F)cc1Br
6.00 to 6.30

====

System: HBV DNA in HepG2.2.15 cells
test: HBV in vitro dot-blot hybridization test
Assay type: cell-based, Hepatitis B virus
experimental.context: Hepatitis B virus, HepG2.2.15, dot-blot hybridization assay, read-out: Concentration for 50% inhibition of HBV (EC50)value
From the text: • 1. Purpose of the test: • The content of HBV DNA in HepG2.2.15 cells was detected by dot-blot hybridization test to evaluate an inhibitory action of the compound on HBV with an EC50 value as an indicator. • 2. […]
measured.property: EC50

CCOC(=O)C1=C2C[C@@H](NC(=O)OC(C)(C)C)CN2C(c2nccs2)=N[C@H]1c1ccc(F)cc1Br | < 100 nM
CCOC(=O)C1=C2C[C@H](NC(=O)C(F)F)CN2C(c2nccs2)=N[C@H]1c1ccc(F)cc1Cl | 100 to 500 nM
CCOC(=O)C1=C2CN(Cc3ccc(OC)cc3)CCN2C(c2nccs2)=NC1c1ccc(F)cc1Br (racemic) | 1000 to 5000 nM

Which EC50 value belongs to CCOC(=O)C1=C2C[C@H](CC(=O)O)CN2C(c2nccs2)=N[C@H]1c1ccc(F)cc1Br ?
500 to 1000 nM

EC50 lookup needed for CCOC(=O)C1=C2C[C@@H](C#N)CN2C(c2nccs2)=N[C@H]1c1ccc(F)cc1Cl , thanks.
1000 to 5000 nM

May I ask what EC50 has been recorded for CCOC(=O)C1=C2CN(Cc3ccc(OC)cc3)C[C@@H](C(=O)OC)N2C(c2nccs2)=N[C@H]1c1ccc(F)cc1Br ?
100 to 500 nM

// returns reported EC50 for input CCOC(=O)C1=C2C[C@@H](CNC(C)=O)CN2C(c2nccs2)=N[C@H]1c1ccc(F)cc1Br
< 100 nM

Name the reported EC50 value associated with the compound CCOC(=O)C1=C2C[C@H](NS(=O)(=O)C3CC3)CN2C(c2nccs2)=N[C@H]1c1ccc(F)cc1Br
< 100 nM

Which value of EC50 has been reported for CCOC(=O)C1=C2C[C@H](N3CCCC3C(=O)OC)CN2C(c2nccs2)=N[C@H]1c1ccc(F)cc1Cl (stereo partly shown) in the records?
1000 to 5000 nM

Which EC50 is reported for this compound? CCOC(=O)C1=C2C[C@H](NS(C)(=O)=O)CN2C(c2nccs2)=N[C@@H]1c1ccc(F)cc1Cl
500 to 1000 nM
